- ASSAY SYSTEM: the molecule itself
- ASSAY NAME: SEC
MEASUREMENT NAME: stoichiometry N
Give bare numbers.

GET /values?readout=stoichiometry N&item= Cpl-1 W210A:F218A (enzyme, bacteriophage Cp-1, UniProt P15057 1-339, looked up) MVKKNDLFVDVSSHNGYDITGILEQMGTTNTIIKISESTTYLNPCLSAQVEQSNPIGFYHFARFGGDVAEAEREAQFFLDNVPMQVKYLVLDYEDDPSGDAQANTNACLRFMQMIADAGYKPIYYSYKPFTHDNVDYQQILAQFPNSLWIAGYGLNDGTANFEYFPSMDGIRWWQYSSNPFDKNIVLLDDEEDDKPKTAGTWKQDSKGWAFRRNNGSAPYNKWEKIGGVWYYFDSKGYCLTSEWLKDNEKWYYLKDNGAMATGWVLVGSEWYYMDDSGAMVTGWVKYKNNWYYMTNERGNMVSNEFIKSGKGWYFMNTNGELADNPSFTKEPDGLITVA
2
